- test-target: T1, EVA‐ACA1001, Avi-tagged and biotinylated (SPR construct) (Amblyomma cajennense (Cayenne tick), UniProt A0A023FFD0 29-136, biotin on the AVI tag (BirA ligase))
- T1 construct: EVA-ACA1001 (Evasin P991), class A3 evasin of Amblyomma cajennense; mass of the untagged protein 11,920 Da (calculated 11,921 Da with five disulfides); also called Evasin P991; full‐length EVA‐ACA1001; not shown: His6, N-terminal, cleaved; SUMO, N-terminal, cleaved
- T1 sequence: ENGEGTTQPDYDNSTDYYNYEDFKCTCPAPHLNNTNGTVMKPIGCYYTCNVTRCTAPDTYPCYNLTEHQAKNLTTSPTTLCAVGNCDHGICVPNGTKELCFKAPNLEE
- experiment-summary: SPR; affinity determination: biotinylated Avi-tagged evasin immobilised on a streptavidin-coated CAPture chip; five two-fold increasing chemokine concentrations (31.25-500 nM), 240 s at 30 uL/min, 600 s dissociation; 1:1 binding model; 25°C; 10 mM HEPES, 500 mM NaCl, 0.002% Tween 20, 3 mM EDTA, 1 mg/mL carboxymethyl dextran, pH 7.5; three independent experiments (Table 1 caption: multiple-cycle kinetics)
- test-parameters: both partners purified
reported-property: Kd (nM)
Reply numerically in nM, unit not repeated.

Q: Would you kindly share the measured Kd for CCL4 (ligand, human, UniProt P13236 24-92, looked up, CCL4, human CC chemokine) APMGSDPPTACCFSYTARKLPRNFVVDYYETSSLCSQPAVVFQTKRSKQVCADPSESWVQEYVYDLELN ?
Result: 1.18

Q: What would you report for CCL16 (ligand, human, UniProt O15467 24-120, looked up, CCL16, human CC chemokine; The E. coli preparation is described for the crystal; also called human chemokine CCL16; not shown: His6, N-terminal, cleaved; SUMO, N-terminal, cleaved) QPKVPEWVNTPSTCCLKYYEKVLPRRLVVGYRKALNCHLPAIIFVTKRNREVCTNPNDDWVQEYIKDPNLPLLPTRNLSTVKIITAKNGQPQLLNSQ ?
Result: 0.54

Q: What would you report for CCL27 (ligand, human, UniProt Q9Y4X3 25-112, looked up, CCL27, human CC chemokine) FLLPPSTACCTQLYRKPLSDKLLRKVIQVELQEADGDCHLQAFVLHLAQRSICIHPQNPSLSQWFEHQERKLHGTLPKLNFGMLRKMG ?
Result: 84.8

Q: What would you report for CCL22 (ligand, human, UniProt O00626 25-93, looked up, CCL22, human CC chemokine) GPYGANMEDSVCCRDYVRYRLPLRVVKHFYWTSDSCPRPGVVLLTFRDKEICADPRVPWVKMILNKLSQ ?
Result: 1.29
